- assay_overview: Bioavailability in rat at 3 mg/kg, iv and 10 mg/kg, po
- Type: ADME, organism-based
- test_settings: in vivo
Classes (bioavailability): bin 1 (below 30%), bin 2 (30% to below 70%), bin 3 (70% or more)

molecular_string | cat
CCOc1cc2ncc(C(N)=O)c(Nc3ccc(C)cc3F)c2cc1N1CCN(C)CC1 | bin 2
CCOc1cc2ncc(C(N)=O)c(Nc3cccc(Cl)c3F)c2cc1N1CCN(C)CC1 | bin 2
CN1CCN(c2ccc3ncc(C(N)=O)c(Nc4ccc(F)cc4F)c3c2)CC1 | bin 1
CCOc1cc2ncc(C(N)=O)c(Nc3cccc(Cl)c3Cl)c2cc1N1CCN(C(C)C)CC1 | bin 2
CCOc1cc2ncc(C(N)=O)c(Nc3cccc(Cl)c3Cl)c2cc1N1CCN(CC)CC1 | bin 1
COCCOc1cc2ncc(C(N)=O)c(Nc3ccc(C)cc3F)c2cc1N1CCN(C)CC1 | bin 3
COc1cc2ncc(C(N)=O)c(Nc3cccc(Cl)c3Cl)c2cc1N1CCN(C)CC1 | bin 3
COc1cc2ncc(C(N)=O)c(Nc3ccc(F)cc3F)c2cc1N1CCN(C)CC1 | bin 3
CCOc1cc2ncc(C(N)=O)c(Nc3cc(F)ccc3F)c2cc1N1CCN(C)CC1 | bin 2
CN1CCN(c2cc3c(Nc4ccc(F)cc4F)c(C(N)=O)cnc3cc2F)CC1 | bin 1
